Provide the reported kon of each item.
study-target: T1, cynomolgus monkey CD137 (cynomolgus monkey, UniProt Q07011 24-186 (human entry), limits assumed)
T1 construct: Soluble analyte in the Biacore assay; also called cyno CD137
T1 chain: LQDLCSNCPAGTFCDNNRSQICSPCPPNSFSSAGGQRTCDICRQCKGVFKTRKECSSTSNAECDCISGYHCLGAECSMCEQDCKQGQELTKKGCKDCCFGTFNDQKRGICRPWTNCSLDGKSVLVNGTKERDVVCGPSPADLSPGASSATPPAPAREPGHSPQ
protocol-description: SPR Biacore T200, IgG captured on protein A, antigen as analyte, 25 C;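 also: antigens flowed over a CM3 chip for 120 s association, KD derived from ka and kd, running buffer (ACES, NaCl, Tween20, pH 7.4) served as blank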
Answers are plain numbers, in M⁻¹ s⁻¹.

These solved cases illustrate the format of a correct answer.
{"binder": "dBBDu_183 / dBBDu_L063 (antibody, V domains shown, Tested as IgG (Fab genes converted into IgG format, human IgG1 constant region, kappa light chain); also called dBBDu183/L063; dBBDu_183/L063) VH: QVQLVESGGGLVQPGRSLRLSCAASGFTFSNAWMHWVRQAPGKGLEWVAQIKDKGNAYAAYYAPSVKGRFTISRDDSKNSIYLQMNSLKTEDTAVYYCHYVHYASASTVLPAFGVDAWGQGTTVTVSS VL: DIVMTQSPLSLPVTPGEPASISCRSSQELVHTNRHTYLHWYQQKPGQAPRLLIYKVSNRFPGVPDRFSGSGSGTDFTLKISRVEAEDVGVYYCAQGTQVPFTFGQGTKLEIK", "kon [M⁻¹ s⁻¹]": 1470}
{"binder": "dBBDu_167 / dBBDu.L094 (antibody, human IgG1, V domains shown, Tested as IgG (human IgG1 constant region, kappa light chain); also called dBBDu167/L094; dBBDu_167/L094) VH: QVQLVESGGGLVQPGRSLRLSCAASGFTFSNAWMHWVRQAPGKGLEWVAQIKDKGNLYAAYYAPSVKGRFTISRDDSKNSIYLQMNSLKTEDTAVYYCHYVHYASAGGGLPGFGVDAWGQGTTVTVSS VL: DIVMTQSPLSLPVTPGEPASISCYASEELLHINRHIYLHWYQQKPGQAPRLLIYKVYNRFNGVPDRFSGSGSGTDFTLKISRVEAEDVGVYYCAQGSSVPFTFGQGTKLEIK", "kon [M⁻¹ s⁻¹]": 10800}

Turning now to a further record.
Fill in the blank: the reported kon of dBBDu_189 / dBBDu_L112 (antibody, human IgG1, V domains shown, Tested as IgG (human IgG1 constant region, kappa light chain); also called dBBDu189/L112) VH: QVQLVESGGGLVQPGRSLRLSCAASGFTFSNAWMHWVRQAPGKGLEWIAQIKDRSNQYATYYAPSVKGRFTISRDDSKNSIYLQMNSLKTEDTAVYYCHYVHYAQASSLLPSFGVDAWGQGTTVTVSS VL: DIVMTQSPLSLPVTPGEPASISCTSDQELVHMNRHTYLHWYQQKPGQAPRLLIYKVYNRFPGVPDRFSGSGSGTDFTLKISRVEAEDVGVYYCAQGTSVPFTFGQGTKLEIK is ____.
4980
